- System Name: PEG-3 (UniProt Q6IN02)
- Measurement Notes: GAPDH versus PEG-3 reporter suppression – cell-based, luminescence, counter-screen for PEG-3 promoter inhibitor project, SAR follow-up (AID 651551)
- Recorded Conditions: HeLa PEG-Prom / GAPDH luciferase reporter, 6 or 24 h, run 1, 6 h; at 99 µM (top of the series)
Result Type: inhibition % (higher = more inhibition) (%)
Write the number in % without appending the unit.

Given item O=C(Nc1nc(-c2ccccc2)cs1)c1nn(-c2ccccc2)c(=O)c2ccccc12 , the value recorded as its inhibition % (higher = more inhibition) is -1.45

Documented inhibition % (higher = more inhibition) of CCn1cc(C(=O)NCc2ccco2)c(=O)c2cc(S(=O)(=O)N3CCCC3)ccc21 : 19.5

Data point: Cc1nc(NC(=O)c2ccccc2)sc1-c1csc(Nc2ccccc2)n1 ; inhibition % (higher = more inhibition) = 23.9

Item: Cc1cc(NC(=O)c2ccccc2)n(-c2nc3ccccc3[nH]2)n1 | inhibition % (higher = more inhibition): 14.9

Per the records, this molecule ( Cc1cc(NC(=O)c2cccc(C)c2C)n(-c2nc3ccccc3[nH]2)n1 ) has inhibition % (higher = more inhibition) equal to 20.4

Reported inhibition % (higher = more inhibition) of COc1ccc(Cl)cc1Nc1nc(-c2sc(NC(=O)c3ccccc3)nc2C)cs1 : 49.3

inhibition % (higher = more inhibition) for CCCn1nc(C(=O)Nc2nc3ccccc3s2)c2ccccc2c1=O is 38.9

The molecule listed as COc1ccc(-n2nc(C(=O)NCC(=O)Nc3ccc(OC)c(OC)c3)c3ccccc3c2=O)cc1 has a reported inhibition % (higher = more inhibition) of 23.9

Form: molecule = Cc1cc(NC(=O)c2ccccc2C(F)(F)F)n(-c2nc3ccccc3[nH]2)n1 ; inhibition % (higher = more inhibition) = 92.7

Value of measured inhibition % (higher = more inhibition) for the entry Cc1nc(NC(=O)c2ccccc2)sc1-c1csc(Nc2ccccc2Cl)n1 : -1.45

// sample COc1ccccc1Nc1nc(-c2sc(NC(=O)c3ccco3)nc2C)cs1 , its inhibition % (higher = more inhibition) was 12

The molecule listed as CCn1nc(C(=O)Nc2nc(-c3ccccn3)cs2)c2ccccc2c1=O has a reported inhibition % (higher = more inhibition) of 26.9

# molecule CCCn1nc(C(=O)Nc2nc(-c3ccccn3)cs2)c2ccccc2c1=O ; its inhibition % (higher = more inhibition) = 25.9

The reported value for Cc1cc(NC(=O)c2ccccc2C)n(-c2nc3ccccc3[nH]2)n1 in terms of inhibition % (higher = more inhibition) is 32.8

Cc1nc(NC(=O)c2ccccc2)sc1-c1csc(Nc2cccc(Cl)c2C)n1 yielded inhibition % (higher = more inhibition) of 37.4

Record Cc1ccc(Cl)cc1Nc1nc(-c2sc(NC(=O)c3ccco3)nc2C)cs1 , field inhibition % (higher = more inhibition): 57.5

# inhibition % (higher = more inhibition) of O=C(Nc1nccs1)c1nn(-c2ccccc2)c(=O)c2ccccc12 = 37.4

Lookup result for COc1ccc(-n2nc(C(=O)NCC(=O)Nc3cc(OC)c(OC)c(OC)c3)c3ccccc3c2=O)cc1OC ; measured inhibition % (higher = more inhibition): 6.02
